# tgt: Serine/threonine-protein kinase Chk1 (Homo sapiens) (UniProt O14757)
# Sequence (O14757 whole entry): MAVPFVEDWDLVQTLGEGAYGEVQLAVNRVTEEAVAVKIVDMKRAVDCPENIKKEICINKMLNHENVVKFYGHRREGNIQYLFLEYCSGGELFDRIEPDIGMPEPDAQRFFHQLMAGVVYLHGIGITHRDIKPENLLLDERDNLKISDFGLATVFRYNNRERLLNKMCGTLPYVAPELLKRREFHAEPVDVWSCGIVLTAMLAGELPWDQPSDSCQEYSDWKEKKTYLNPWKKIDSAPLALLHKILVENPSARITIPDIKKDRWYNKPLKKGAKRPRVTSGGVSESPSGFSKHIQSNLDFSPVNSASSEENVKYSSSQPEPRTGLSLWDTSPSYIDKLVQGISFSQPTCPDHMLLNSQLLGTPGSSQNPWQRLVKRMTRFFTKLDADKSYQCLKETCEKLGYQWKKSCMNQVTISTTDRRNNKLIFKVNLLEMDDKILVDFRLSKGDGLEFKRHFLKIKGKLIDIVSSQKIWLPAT
# test settings: at 0.1 µM
metric name: inhibition (%)
Note: unit % is implicit; provide only the numeric part.

COc1c(C(N)=O)cc(-c2ccc(Cl)cc2)cc1-c1ccc(S(N)(=O)=O)cc1 ... -0.02

Observed inhibition on Serine/threonine-protein kinase Chk1 (Homo sapiens) (UniProt O14757) for `CCN1CCC(C(=O)Nc2n[nH]c3nnc(-c4cccc(F)c4F)cc23)CC1` , please.
-2.25

Provide the documented inhibition with Serine/threonine-protein kinase Chk1 (Homo sapiens) (UniProt O14757) as the system for `CCOc1ccc2c(-c3ccnc(Nc4cc(OC)cc(C(F)(F)F)c4)n3)cnn2n1`
3.19

What is its inhibition for Serine/threonine-protein kinase Chk1 (Homo sapiens) (UniProt O14757)? Entry: `O=C(O[C@H]1CN[C@H](C#Cc2cc3ncnc(Nc4ccc5c(cnn5Cc5ccccc5)c4)c3s2)C1)N1CCOCC1`
0.36

Test system Serine/threonine-protein kinase Chk1 (Homo sapiens) (UniProt O14757); read-out inhibition; what value for `NS(=O)(=O)c1ccc(N/N=C2\C(=O)Nc3ccc(C(=O)NCc4ccncc4)cc32)cc1` ?;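 further: reported figure is the mean percent inhibition of CHEK1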
2.58

For the record `Fc1cccc(COc2ccc(Nc3ncncc3C#Cc3ccccc3)cc2Cl)c1` , what value of inhibition is listed for Serine/threonine-protein kinase Chk1 (Homo sapiens) (UniProt O14757)?
3.29
